Origin of measurements: PubChem BioAssay

experiment: mitochondrial membrane potential change in A549 cells, profiling panel, cell-based, JC-1 fluorescence, basal, 24 h, 100 nL (AID 1138);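 further: A549 lung adenocarcinoma cells under basal conditions with no added stimulus; test concentration not given here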
assaySetup: higher = more signal
Each item that follows carries a reported z-score.
Answer with the value's number alone.

Below, each entry is followed by its recorded z-score result.
CC(C)C(=C=CC[C@H](O)c1cccc(OCCO)c1)C[C@H](O)c1ccccn1: 0.717
C=CCNC(=O)[C@H]1[C@@H]2C(=O)O[C@@H](c3ccccc3)[C@@H](c3ccccc3)N2[C@@H](c2ccc(OCCO)cc2)[C@]12C(=O)N(C(=O)OCCOC)c1ccc(C#CCNC(N)=O)cc12: -0.0216
C[C@]1(C(=O)NCC(F)(F)F)c2ccccc2C(=O)N(Cc2cc(C(F)(F)F)cc(C(F)(F)F)c2)[C@H]1c1ccc(CO)cc1: 1.23
COC(=O)c1c2oc(c1C(=O)OC)C(=O)N[C@H](Cc1ccccc1)Cn1cc(nn1)C1(CCCCC1)NC(=O)N[C@H](CO)CC2: -0.318
C=CCOC(=O)[C@@H]1[C@H]2C(=O)O[C@H](c3ccccc3)[C@H](c3ccccc3)N2[C@H](c2ccc(OCCOC(=O)[C@@H]3C[C@@H]4C(=O)N[C@@H](CC(C)C)C(=O)N4[C@@H]3c3ccc(O)cc3)cc2)[C@@]12C(=O)Nc1ccc(I)cc12: -1.58
CC[C@@H](O[Si](C#C[Si](C(C)C)(C(C)C)C(C)C)(C(C)C)C(C)C)c1cn(Cc2cccc(Cl)c2)nn1: -0.153
OCCCc1cc[n+](Cc2cc3c(cc2Br)OCO3)cc1: -0.0611
C[N+](C)(C)CCCC[C@@H]1NC(=O)[C@H]2C[C@@H](C(=O)O)[C@@H](c3ccc(O)cc3)N2C1=O: 1.49

Item under review: COCCOC(=O)N1C(=O)[C@@]2(c3cc(C#CCC(C(=O)OC)C(=O)OC)ccc31)[C@H](c1ccc(O)cc1)N1[C@H](c3ccccc3)[C@H](c3ccccc3)OC(=O)[C@H]1[C@@H]2C(=O)N1CCc2cc(OC)c(OC)cc2C1 . Reported z-score?
0.627

Let us now turn to COc1ccc(-c2cc3c(c(CCc4ccccc4)n2)[Si](C(C)C)(C(C)C)O[C@H]3c2ccccc2)cn1
0.412

Let us now turn to C=CCC(OC(C)=O)[C@@H]1[C@@H](N(Cc2ccc(-c3ccccc3)cc2)C(=O)Cc2ccc(OC)cc2)c2cc(OCCCO)ccc2N1C(=O)c1ccc2ccccc2c1 (stereo partly drawn)
0.865

Let us now turn to C=CCC(OC(C)=O)[C@@H]1[C@@H](N(Cc2cccc3ccccc23)C(=O)c2ccc(C)cc2)c2cc(OCCCO)ccc2N1C(=O)Cc1ccc2ccccc2c1 (stereo partly drawn)
1.62

Let us now turn to C=CCNC(=O)[C@H]1[C@@H]2C(=O)O[C@@H](c3ccccc3)[C@@H](c3ccccc3)N2[C@@H](c2ccc(O)cc2)[C@]12C(=O)Nc1ccc(C#CCC(C(=O)OC)C(=O)OC)cc12
0.243

* * *

experiment: small-molecule microarray binders of probe aDKK1, primary screen, biochemical, biotinylated probe, 635/667 nm fluorescence (AID 1099);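 further: score merges 667nm spot fluorescence with signal to noise across triplicate slides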
assaySetup: higher = more signal
assayMetric: composite z-score
Answer with the value's number alone.

Below, each entry is followed by its recorded composite z-score result.
C=CC[C@@]1(C(=O)NCCCOC)N=C(c2ccc(OCCCO)cc2)O[C@@H]1c1ccccc1CN=[N+]=[N-]: 0.739
C=CCNC(=O)[C@H]1[C@@H]2C(=O)O[C@@H](c3ccccc3)[C@@H](c3ccccc3)N2[C@@H](c2ccc(OCCO)cc2)[C@]12C(=O)N(C(=O)OCCOC)c1ccc(C#CCC(C(=O)OC)C(=O)OC)cc12: 0.713
CCCCC(=C=CC[C@H](O)c1cccc(OCCO)c1)C[C@H](O)c1cc(Cl)cc(Cl)c1O: -0.152
CC[C@@H]1C=C(C(=O)O)[C@H](c2cccc(Cl)c2)N1S(=O)(=O)c1ccc(C)cc1: 0.472
COc1ccc(C(O)C2C=CC3C(=O)N(C)C(=O)C3N2Nc2ccccc2)cc1 (configuration not stated): -0.0205

Item under review: C[C@H]1C2[C@H](Cc3ccccc3)NC(=O)[C@]23C(=O)N[C@@H](Cc2ccccc2)C(=O)N2CCC[C@H]2C(=O)NC/C=C/CC/C=C/C3[C@@H]2O[C@]12C (some centres not stated) . Reported composite z-score?
-0.297

Let us now turn to CCc1cccc(NC(=O)O[C@H]2[C@H](OC(=O)Nc3ccccc3-c3ccccc3)[C@H](OC(=O)Nc3ccccc3-c3ccccc3)[C@@H](OC)O[C@@H]2CO)c1
0.632

* * *

experiment: CREB reporter modulators without forskolin, primary screen, cell-based, PC12, CRE-LacZ reporter, unstimulated (AID 1145)
assaySetup: no forskolin, luminescence, 4.5 h, higher = more signal, called active from +8 up or from −8 down
Each item that follows carries a reported z-score.
Answer with the value's number alone.

COc1ccc(C#Cc2ccc3c(c2)[C@]2(C(=O)N3)[C@H](c3ccccc3OCCO)N3[C@H](c4ccccc4)[C@H](c4ccccc4)OC(=O)[C@H]3[C@@H]2C(=O)NC[C@H](O)c2ccccc2)cc1: 0.0921

Item under review: O=C1OCCC/C=C\[C@H]2OC34C=CCN(Cc5ccccc5)C(=O)[C@H]3N(CCO)C(=O)[C@@H]4C12 (some centres undefined) . Reported z-score?
-0.0899

Let us now turn to CC[C@@H]1C=C(C(=O)O)[C@H](c2cccc(Cl)c2)N1S(=O)(=O)c1ccc(C)cc1
-0.322

Let us now turn to C=CCNC(=O)[C@@H]1[C@H]2C(=O)O[C@H](c3ccccc3)[C@H](c3ccccc3)N2[C@H](c2ccc(O)cc2)[C@@]12C(=O)N(C(=O)OCCOC)c1ccc(C#CCC(C(=O)OC)C(=O)OC)cc12
-0.438

* * *

studyTarget: Concanavalin-A (Canavalia ensiformis) (UniProt P02866)
Sequence (P02866 whole entry, looked up): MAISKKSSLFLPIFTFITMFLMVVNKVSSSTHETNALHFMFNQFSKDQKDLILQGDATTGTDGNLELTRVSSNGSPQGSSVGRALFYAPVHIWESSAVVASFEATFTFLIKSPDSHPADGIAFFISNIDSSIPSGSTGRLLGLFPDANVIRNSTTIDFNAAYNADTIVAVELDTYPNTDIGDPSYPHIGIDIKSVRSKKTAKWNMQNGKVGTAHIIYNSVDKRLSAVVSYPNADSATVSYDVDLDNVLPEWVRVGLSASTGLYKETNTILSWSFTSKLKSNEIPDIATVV
experiment: ConA small-molecule binders, primary screen, artefact control for SMM control protein annotation, biochemical, small-molecule microarray, Alexa647 label, 635 nm (AID 1127);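 further: z combines 667 nm emission intensity with signal-to-noise across three replicate slides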
assaySetup: ConA-A647 binding fluorescence, higher = more signal
Classes based on composite z-score: low = under 0.3, medium = from 0.3 up to 1, high = 1 and over

Recorded results for 5 compounds are shown here.
Cc1ccc(S[C@]2(C(=O)NCC(C)C)CC(=O)N(C(C)C)[C@@H]2c2ccc(CO)cc2I)cc1: low
COC(=O)[C@]1(Cc2ccccc2CN=[N+]=[N-])N=C(c2ccc(OCCCO)cc2)O[C@@H]1c1ccccc1N=[N+]=[N-]: medium
O=C(NCCN1CCOCC1)[C@@H]1c2ccccc2C(=O)N(CC23CC4CC(CC(C4)C2)C3)[C@H]1c1ccc(CO)cc1: high
Cc1ccc(S[C@]2(C(=O)NCCN3CCOCC3)CC(=O)N(C(C)C)[C@@H]2c2ccc(CO)cc2I)cc1: low
COc1ccc([Si](C)(C)[C@@H]2[C@@H](CC(=O)N(CCO)Cc3ccccc3)O[C@]3(C(=O)N(Cc4cccc(I)c4)c4ccccc43)[C@H]2C)cc1: medium

Assign a bin to CC(C)(C)OC(=O)CC[C@@]1(C(N)=O)N=C(c2ccc(OCCCO)cc2)O[C@@H]1c1ccccc1CN=[N+]=[N-]
medium

Let us now turn to CN1C(=O)C2C=CC(C(O)c3ccc([N+](=O)[O-])cc3)N(Nc3ccccc3)C2C1=O (centres undefined)
high

Let us now turn to CC(CO)N1C(=O)[C@@H]2[C@H]3C(=O)OCC=C[C@H]3OC23C=CCN(c2ccc4ccccc4c2)C(=O)[C@@H]13 (some centres undefined)
low

Let us now turn to COC(=O)C(CC#Cc1ccc2c(c1)[C@]1(C(=O)N2)[C@H](C(=O)N2CCCCCCC2)[C@H]2C(=O)O[C@H](c3ccccc3)[C@H](c3ccccc3)N2[C@@H]1c1ccc(OCCO)cc1)C(=O)OC
high

Let us now turn to CC[C@@H](O[Si](C#C[Si](C(C)C)(C(C)C)C(C)C)(C(C)C)C(C)C)c1cn([C@H](CO)Cc2ccccc2)nn1
medium

Let us now turn to C=CC[C@@]1(C(=O)NCCCOC)N=C(c2ccc(OCCCO)cc2)O[C@@H]1c1ccccc1CN=[N+]=[N-]
high

Let us now turn to CCCCCN1CC=CC23O[C@@H]4/C=C\CCCOC(=O)C4[C@H]2C(=O)N(CCCCCO)[C@@H]3C1=O (some centres undefined)
low

* * *

experiment: HepG2 cell viability effects, profiling panel, calcein-AM fluorescence, 48 h, basal (AID 1164); further: test concentration not given here
assaySetup: higher = more signal
z-score vs 0.4: at or above is 1, below is 0.

Recorded results for 8 compounds are shown here.
C=CC[C@]1(C(N)=O)N=C(c2ccc(OCCCO)cc2)O[C@H]1c1ccccc1N=[N+]=[N-]: 1
CCOC(=O)C[C@H]1[C@H](OC(=O)c2ccc(-c3ccccc3)cc2)[C@@H](NC(=O)c2ccc(-c3ccccc3)cc2)c2cc(OCCCO)ccc2N1C(=O)c1ccccc1: 0
C=C(C(=O)CC[C@@H](OC(=O)c1cccnc1)c1cccc(OCCO)c1)C(C)C: 1
C=C(CCCC)/C(=C/C[C@@H](OC(C)=O)c1ccc(OCCO)cc1)c1cc(C(=O)OC)ccc1OC: 1
C=C(CCCC)/C(=C/C[C@@H](OC(C)=O)c1cccc(OCCO)c1)c1cc(C(=O)OC)ccc1OC: 1
CC[C@@H](O[Si](C#C[Si](C(C)C)(C(C)C)C(C)C)(C(C)C)C(C)C)c1cn([C@H](CO)Cc2ccccc2)nn1: 1
C=C(COC)C(=O)CC[C@H](OC(C)=O)c1ccc(CO)o1: 0
O=C1NC(=O)C2C1C=CC(C(O)C(O)CO)N2Nc1ccccn1 (stereo unspecified): 1

For this compound, is measured z-score 0.4 or higher? COc1ccc(CCNC(=O)[C@@H]2c3ccccc3C(=O)N(Cc3cc(F)cc(C(F)(F)F)c3)[C@H]2c2ccc(CO)cc2)cc1
1

Let us now turn to COC(=O)[C@H](Cc1ccccc1)N1CC(C)(OC)O[C@@H](Cc2ccccc2)[C@H]1/C=C/C1CC1 (stereo partly specified)
0

Let us now turn to C=C(COC)/C(=C/C[C@@H](OC(C)=O)c1cccc(OCCO)c1)c1cnc2ccccc2c1
0

Let us now turn to C=CCNC(=O)[C@@H]1[C@H]2C(=O)O[C@H](c3ccccc3)[C@H](c3ccccc3)N2[C@H](c2ccc(OCCO)cc2)[C@@]12C(=O)N(C(=O)OCCOC)c1ccccc12
0

Let us now turn to O=C1OC[C@@H](c2ccccc2)n2cc(/C=C/c3ccccc3)cc21
0
